B1: Max-interacting protein 1, residues 70 to 120; numbered along this chain, P50539 (parent)
chain: STHNELEKNRRAHLRLCLERLKVLIPLGPDCTRHTTLGLLNKAKAHIKKLE

Variants of: B1
EXPERIMENT: abundance fitness (aPCA) (normalised: wild type 0, dead -1); higher = more abundant; growth selection in yeast, the domain comes from the species named
CONDITION_SUMMARY: Homo sapiens
OBSERVED_PROPERTY: abundance fitness
Just the number, please, no unit after it.

Exercise: Report abundance fitness, nothing else, for this variant: STHNELEYNRRAHLRLCLERLKVLIPLGPDCTRHTTLGLLNKAKAHIKKLE [K8Y]
Key: -0.619

Exercise: Report abundance fitness, nothing else, for this variant: STHNELEKNRRAHLRNCLERLKVLIPLGPDCTRHTTLGLLNKAKAHIKKLE [L16N]
Key: -0.069

Exercise: Report abundance fitness, nothing else, for this variant: STHNELEKNRRAHLRLCLERLKVLIPLGPDCTRHTTLGLLNKAKDHIKKLE [A45D]
Key: -0.617

Exercise: Report abundance fitness, nothing else, for this variant: STHNELEKNRRAHLRLCLERLKVLIPLGPDCTRVTTLGLLNKAKAHIKKLE [H34V]
Key: 0.019

Exercise: Report abundance fitness, nothing else, for this variant: STHNELEKNRHAHLRLCLERLKVLIPLGPDCTRHTTLGLLNKAKAHIKKLE [R11H]
Key: -0.13

Exercise: Report abundance fitness, nothing else, for this variant: STHNELEKNRRAHLRLCLERLKVLIPLGPDCDRHTTLGLLNKAKAHIKKLE [T32D]
Key: -0.387

Exercise: Report abundance fitness, nothing else, for this variant: STHNELEKNRRAHLRLCLERLKVLIPLGPDCTRHTTLGLLNKAKAHFKKLE [I47F]
Key: 0.216

Exercise: Report abundance fitness, nothing else, for this variant: STHNELEKNRRAHLRLCLERLWVLIPLGPDCTRHTTLGLLNKAKAHIKKLE [K22W]
Key: -1.08

Exercise: Report abundance fitness, nothing else, for this variant: STHNELEKNRRAHLRLCLERLKVLIPLGPACTRHTTLGLLNKAKAHIKKLE [D30A]
Key: 0.095

Exercise: Report abundance fitness, nothing else, for this variant: STHNELEKNRREHLRLCLERLKVLIPLGPDCTRHTTLGLLNKAKAHIKKLE [A12E]
Key: -0.432

Exercise: Report abundance fitness, nothing else, for this variant: STHNELEKNRRAHLRLCLERLKQLIPLGPDCTRHTTLGLLNKAKAHIKKLE [V23Q]
Key: 0.123
